The reported numbers originate from ChEMBL document CHEMBL1154263.

Exercise: state measured pIC50 for each of the compounds provided.
test system: Vero; assay: Cytotoxicity against african green monkey Vero cells after 8 days by green fluorescent protein microplate assay; assay type: cell-based; details: Chlorocebus sabaeus, 192 h
One number for each entry, as −log10 of the molar value.

1) O=C/C=C/C=C1/C(=O)O[C@H](/C=C/CO)[C@H]1O	4.06
2) Cc1c2ccncc2c(C)c2c1[nH]c1ccccc12	5.26

Q: Which pIC50 value belongs to `C=C1CCC(=O)[C@@]2(C)CC[C@H](C(C)(C)O)C[C@H]12` ?
Ans: 4.49

----------
system: Mycobacterium tuberculosis; assay: Antituberculosis activity against Mycobacterium tuberculosis H37Ra; type: functional, organism-based
Activity calls are given as the source filed them. The calls are words filed in the database; no cut-off is given here.
observable: Activity

1) O=C1O[C@H](/C=C/CO)[C@@H](O)/C1=C\C=C\CO	inactive
2) C=C1CCC(=O)[C@@]2(C)CC[C@H](C(C)(C)O)C[C@H]12	inactive
3) O=C/C=C/C=C1/C(=O)O[C@H](/C=C/CO)[C@H]1O	inactive
4) C=C1CC[C@H](O)[C@@]2(C)CC[C@H](C(C)(C)O)C[C@H]12	inactive
